Values compiled from paper PMC4336329.

Biological target: human ether-à-go-go-related gene (hERG) potassium channel (human);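 note: peak tail current of the secondary pulse compared with the same well before compound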
Sequence (Q12809 whole entry, looked up): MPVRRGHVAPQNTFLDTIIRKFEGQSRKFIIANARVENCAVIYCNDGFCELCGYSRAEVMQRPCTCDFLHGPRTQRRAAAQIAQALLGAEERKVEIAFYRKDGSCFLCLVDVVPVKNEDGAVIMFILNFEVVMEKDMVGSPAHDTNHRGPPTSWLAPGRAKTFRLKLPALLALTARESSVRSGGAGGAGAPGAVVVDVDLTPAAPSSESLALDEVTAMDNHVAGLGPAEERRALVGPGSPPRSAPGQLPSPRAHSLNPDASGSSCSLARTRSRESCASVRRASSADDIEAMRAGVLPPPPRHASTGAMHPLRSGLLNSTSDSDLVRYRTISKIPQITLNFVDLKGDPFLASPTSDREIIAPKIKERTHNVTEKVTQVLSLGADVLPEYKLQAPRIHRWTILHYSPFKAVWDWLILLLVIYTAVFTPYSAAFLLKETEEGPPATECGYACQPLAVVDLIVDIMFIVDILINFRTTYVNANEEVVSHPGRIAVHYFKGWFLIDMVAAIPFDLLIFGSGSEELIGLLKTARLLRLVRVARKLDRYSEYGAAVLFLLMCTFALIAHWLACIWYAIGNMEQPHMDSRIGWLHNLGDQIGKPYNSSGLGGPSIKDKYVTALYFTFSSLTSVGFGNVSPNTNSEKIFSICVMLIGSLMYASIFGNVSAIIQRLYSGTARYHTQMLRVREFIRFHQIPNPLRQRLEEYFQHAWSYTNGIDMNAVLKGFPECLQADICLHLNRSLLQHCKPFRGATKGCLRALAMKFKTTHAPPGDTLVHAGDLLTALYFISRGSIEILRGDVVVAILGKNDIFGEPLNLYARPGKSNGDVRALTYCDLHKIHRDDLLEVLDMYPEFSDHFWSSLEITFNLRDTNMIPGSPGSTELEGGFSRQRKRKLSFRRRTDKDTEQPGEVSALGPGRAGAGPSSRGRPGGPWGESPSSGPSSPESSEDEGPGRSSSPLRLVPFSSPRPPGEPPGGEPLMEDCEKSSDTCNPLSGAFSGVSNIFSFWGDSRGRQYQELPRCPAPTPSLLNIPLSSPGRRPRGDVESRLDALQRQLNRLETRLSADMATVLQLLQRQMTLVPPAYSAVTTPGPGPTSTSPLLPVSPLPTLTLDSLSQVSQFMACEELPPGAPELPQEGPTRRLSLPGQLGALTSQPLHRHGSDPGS
Assay: primary screen, population patch clamp on CHO cells stably expressing hERG; higher = less effect of the substance
Hit rate of the full screen: of about 310,000 compounds, about 14,000 (4.5%) showed an effect of 50% or more. Effects have a minus sign here. Shown is part of a subset that was picked to be rich in strong results.
MEASURED_ENDPOINT: hERG current change (%, negative = inhibition) at 10uM (%)
Dear colleague, please return just the value in %, with no unit written.

molecule "CSc1ccc(CNc2ncc(-c3cccc([N+](=O)[O-])c3)n2C)cc1.O=C(O)C(=O)O" , hERG current change (%, negative = inhibition) at 10uM observed: -66.4

hERG current change (%, negative = inhibition) at 10uM in this record for Cc1ccc(Oc2ccc(C(=O)NC3CCSC3=O)cn2)cc1 (stereo not drawn) : 12

Looking up "Cc1ccc([N+](=O)[O-])c(OCCN2CCNCC2)c1.O=C(O)C(=O)O" , I see its hERG current change (%, negative = inhibition) at 10uM listed as -14.6

Briefly, hERG current change (%, negative = inhibition) at 10uM measured for "COc1cc(NC(=O)CN2CCC(Cc3ccccc3)CC2)c(C)cc1[N+](=O)[O-]" : 6.01

Summary for this molecule, "O=C(OCc1cccc([N+](=O)[O-])c1)c1cc2ccccc2oc1=O" : hERG current change (%, negative = inhibition) at 10uM is 20.7

// sample "Cc1cccc(OCC(=O)Nc2ccc(S(=O)(=O)Nc3onc(C)c3C)cc2)c1C" , its hERG current change (%, negative = inhibition) at 10uM was 13.3

The molecule "O=C(c1cccc([N+](=O)[O-])c1)N1CCN(C(=O)c2ccco2)CC1" showed hERG current change (%, negative = inhibition) at 10uM equal to -10.8

Note to self: hERG current change (%, negative = inhibition) at 10uM recorded for "COc1ccc(NC(=S)NCCSc2ccc(C)cc2)c(OC)c1" was 5.2

Sure, the documented hERG current change (%, negative = inhibition) at 10uM for "Cc1cc(OCCN2CCOCC2)ccc1[N+](=O)[O-].O=C(O)C(=O)O" is 5.11

What the record says about "CC(=O)Nc1ccc(NC(=O)CSc2nnc(C)n2-c2ccccc2)cc1" : hERG current change (%, negative = inhibition) at 10uM is 26.1

hERG current change (%, negative = inhibition) at 10uM reported for this molecule "Cc1ccccc1OCC(=O)Nc1ccc(N2CCN(C(=O)C(C)C)CC2)c(Cl)c1" : -31.2

Input COCC1CCCCN1C(=O)C1CCN(c2nc(-c3ccccc3)nc3c2CCC3)CC1 (stereo not drawn) . Output hERG current change (%, negative = inhibition) at 10uM: -29.2

# molecule "Cc1ccc([N+](=O)[O-])c(OCCCN2CCC(Cc3ccccc3)CC2)c1.O=C(O)C(=O)O" ; its hERG current change (%, negative = inhibition) at 10uM = -89.6

Just so you know, measured hERG current change (%, negative = inhibition) at 10uM for "Cc1ccc([N+](=O)[O-])c(OCCN2CCCCCC2)c1.O=C(O)C(=O)O" came out at -34

Documented hERG current change (%, negative = inhibition) at 10uM of "Cc1ccccc1OCC(=O)Nc1ccc(N2CCN(C)CC2)c(Cl)c1" : -68.8

Briefly, hERG current change (%, negative = inhibition) at 10uM measured for "CN1CCN(c2ccc(NC(=S)NC(=O)c3cccc4c(Cl)cccc34)cc2)CC1" : 0.63

Looking up "O=C(c1cccn2c(=O)c3cc(Br)ccc3nc12)N1CCC2(CC1)OCCO2" , I see its hERG current change (%, negative = inhibition) at 10uM listed as -37

"O=C(C1CCN(c2nc(-c3ccccc3)nc3c2CCC3)CC1)N1CCCC1" has a reported hERG current change (%, negative = inhibition) at 10uM of -35.8

Lookup result for "Cn1c(-c2ccccc2)cnc1NCc1ccccc1" ; measured hERG current change (%, negative = inhibition) at 10uM: -21.3

Summary for this molecule, "CC(C)NCc1cccc([N+](=O)[O-])c1.O=C(O)C(=O)O" : hERG current change (%, negative = inhibition) at 10uM is 3.39

The molecule "O=C(COC(=O)COc1ccccc1[N+](=O)[O-])Nc1ccccc1Br" showed hERG current change (%, negative = inhibition) at 10uM equal to 3.82

Form: molecule = "Cc1cc(OCCCN2CCN(Cc3ccccc3)CC2)ccc1[N+](=O)[O-].O=C(O)C(=O)O" ; hERG current change (%, negative = inhibition) at 10uM = -71.5

For reference, reported hERG current change (%, negative = inhibition) at 10uM for "Cn1c(-c2cccc([N+](=O)[O-])c2)cnc1NCc1cccc([N+](=O)[O-])c1.O=C(O)C(=O)O" stands at -77.8

Measured hERG current change (%, negative = inhibition) at 10uM, "COc1cccc(CNc2ncc(-c3ccccc3)n2C)c1" : -35.6

// sample "Cc1ccc(CNc2ncc(-c3ccccc3)n2C)o1.O=C(O)C(=O)O" , its hERG current change (%, negative = inhibition) at 10uM was -37

hERG current change (%, negative = inhibition) at 10uM recorded for this molecule, "O=C(c1ccco1)N1CCN(C(=O)c2ccccc2[N+](=O)[O-])CC1" , is 22.4

Quick note, hERG current change (%, negative = inhibition) at 10uM for "Cc1noc(C)c1COC(=O)/C=C/c1ccc(Cl)cc1" landed at 0.131

Given item "CN1CCN(c2ccc(NC(=S)NC(=O)c3cccc4ccccc34)cc2)CC1" , the value recorded as its hERG current change (%, negative = inhibition) at 10uM is -51

Kindly note the recorded hERG current change (%, negative = inhibition) at 10uM for "COCCCNC(=O)c1c(N)n(-c2ccc(S(N)(=O)=O)cc2)c2nc3ccccc3nc12" , which is 0.473

Data point: "Cc1ccccc1OCC(=O)NC(=S)Nc1ccc(N2CCOCC2)c(Cl)c1" ; hERG current change (%, negative = inhibition) at 10uM = 15.3

Memo: "CN1CCN(c2ccc(NC(=S)NC(=O)c3cccc4c(Br)cccc34)cc2)CC1" , reported hERG current change (%, negative = inhibition) at 10uM: 16.2

Briefly, hERG current change (%, negative = inhibition) at 10uM measured for "COC(=O)c1ccc(NC(=O)c2ccc3c(c2)C(=O)N(Cc2cccnc2)C3=O)cc1" : -23.2

Short answer for COc1cc(/C=N/NC(=O)C(=O)NCC2CCCO2)cc(Cl)c1O (stereo not drawn) : hERG current change (%, negative = inhibition) at 10uM was 31.8

Input "Cn1c(-c2ccc(F)cc2)cnc1NCc1cccc(F)c1" . Output hERG current change (%, negative = inhibition) at 10uM: -46

Measured hERG current change (%, negative = inhibition) at 10uM, "CCCSc1cc(N2CCCC2)nc(-c2ccccc2)n1" : 15.5

hERG current change (%, negative = inhibition) at 10uM reading for "CC(=O)Nc1ccc(NC(=O)CSc2nnc(-c3cccnc3)o2)cc1" : 7.42

// recorded hERG current change (%, negative = inhibition) at 10uM for "Cn1c(-c2ccc(F)cc2)cnc1NCc1cccc([N+](=O)[O-])c1" : -70.9

Kindly note the recorded hERG current change (%, negative = inhibition) at 10uM for "Cc1[nH]c2ccccc2c1C(=O)COC(=O)C(C)C" , which is -6.03

Please fill in: hERG current change (%, negative = inhibition) at 10uM reported for "Cc1ccc([N+](=O)[O-])c(OCCCN2CCCCCC2)c1.O=C(O)C(=O)O" = -58.6
